The origin of these recorded values is paper PMC3278529.

Biological target: p47^phox (Homo sapiens, UniProt P14598)
Sequence (P13498 2-195): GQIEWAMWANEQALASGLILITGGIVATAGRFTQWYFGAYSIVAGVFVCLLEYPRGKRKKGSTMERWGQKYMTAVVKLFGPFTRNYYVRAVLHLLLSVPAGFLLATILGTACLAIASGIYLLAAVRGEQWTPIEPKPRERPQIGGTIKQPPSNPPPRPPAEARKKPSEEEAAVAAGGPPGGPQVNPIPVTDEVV
Sequence (P14598 whole entry): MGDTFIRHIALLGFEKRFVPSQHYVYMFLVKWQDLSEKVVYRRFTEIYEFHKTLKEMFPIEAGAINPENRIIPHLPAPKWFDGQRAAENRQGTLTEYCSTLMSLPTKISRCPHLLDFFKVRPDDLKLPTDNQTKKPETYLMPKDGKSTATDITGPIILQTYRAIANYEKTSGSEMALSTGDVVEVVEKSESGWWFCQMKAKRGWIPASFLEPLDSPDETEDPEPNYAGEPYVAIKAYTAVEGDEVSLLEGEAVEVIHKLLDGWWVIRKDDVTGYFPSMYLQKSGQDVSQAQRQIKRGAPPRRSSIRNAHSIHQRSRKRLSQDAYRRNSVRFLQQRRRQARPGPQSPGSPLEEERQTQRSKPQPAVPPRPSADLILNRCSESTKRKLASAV
Experiment: ELISA of p47phox-p22phox peptide interaction
quantity-kind: pIC50
Give bare numbers, as −log10 of the molar value.

Report pIC50 for O=C1C=CC(=O)c2ccccc21
6.15
